# Tested on: EPHA2;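 also: KINOMEscan kinase panel screen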
# condition-parameters: concentration: 1 μM,replicates: in singlicate; n = 1
Note to self: %Inh under 10% means Criterion met, ties and anything higher get Criterion not met.

Answered examples (4):
[[record]]
molecule = "CN(c1ccc2c(c1)nc(NCc1ccc(F)cc1)n2C)c1ccnc(Nc2ccc(CS(C)(=O)=O)cc2)n1.Cl"
subject_of_test = "EPHA2"
label = "Criterion not met"

[[record]]
molecule = "NC(=O)Nc1sc(-c2ccc(F)cc2)cc1C(N)=O"
subject_of_test = "EPHA2"
label = "Criterion not met"

[[record]]
molecule = "CC(C(=O)NC1CCN(c2ccnc(Nc3ccc(F)cc3)n2)C1)c1ccc(Cl)cc1 (stereo not drawn)"
subject_of_test = "EPHA2"
label = "Criterion not met"

[[record]]
molecule = "CS(=O)(=O)Nc1ccc(-c2ccnc3[nH]ccc23)cc1"
subject_of_test = "EPHA2"
label = "Criterion met"


Regarding Cc1ccn2nc(-c3ccc(F)cc3)c(-c3ccncc3)c2c1.Cl , kindly confirm whether its %Inh is beneath 10%. Criterion not met

Regarding O=C(Nc1cccc(Oc2ccc3nccn3n2)c1)Nc1cccc(C(F)(F)F)c1 , kindly confirm whether its %Inh is beneath 10%. Criterion not met

Regarding Cc1nnc(-c2ccc3occ(-c4ccc(S(C)=O)cc4)c3n2)o1 (stereo not drawn) , kindly confirm whether its %Inh is beneath 10%. Criterion met

Regarding C[C@@H](Oc1cc(-n2cnc3cc(-c4ccncc4)ccc32)sc1C(N)=O)c1ccccc1Cl , kindly confirm whether its %Inh is beneath 10%. Criterion not met
